# Tested on: BT-549 breast
# Experiment: NCI-60 one-dose screen, 48 h
# Stated conditions: 10 µM unless noted
Compounds without any hit were thinned out: in the full panel of roughly 83,000, 20% have a hit. The source made the active and inactive calls. Rule for the calls: active = growth percent below 10; inactive = the rest.
Classes to choose from: 1 for active, -1 for inactive

Query string: Would you mind telling me which call this test gave CN(C)S(=O)(=O)Oc1ccc(-c2sc3cc(OS(=O)(=O)N(C)C)ccc3c2C(=O)c2ccc(OCCN3CCCCC3)cc2)cc1 ?
Result string: -1

Query string: Would you mind telling me which call this test gave Nc1nc(N)c2c(n1)NC(c1cccc(Nc3ccnc4cc(C(F)(F)F)ccc34)c1)CC(c1ccccc1)=N2 (centres undefined) ?
Result string: -1

Query string: Would you mind telling me which call this test gave COC(=O)CCC/C=C\C[C@H]1C=CC(=O)/C1=C/C[C@@H](O)C/C=C\CC(F)(F)F ?
Result string: 1

Query string: Would you mind telling me which call this test gave CCOc1ccc(-n2nc(C(=O)NCc3ccccc3OC)nc2-c2cc(OC)c(OC)c(OC)c2)cc1 ?
Result string: -1

Query string: Would you mind telling me which call this test gave Cn1cc(-c2nn3cc(-c4cccs4)nc3s2)c2cc(F)ccc21 ?
Result string: -1

Query string: Would you mind telling me which call this test gave CCN1CCN(CC(=O)Nc2nc3ccc(NCc4ccc(F)cc4)cc3s2)CC1 ?
Result string: -1

Query string: Would you mind telling me which call this test gave O=c1cc(-c2ccccc2)[nH]c2ncc(-c3ccc(F)cc3)n12 ?
Result string: -1

Query string: Would you mind telling me which call this test gave O=C(Oc1ccc(CCl)cc1)c1ccccc1 ?
Result string: 1

----------
Recorded growth for the following molecules
# Test system: RXF 393 renal
# Experiment: NCI-60 one-dose screen, 48 h (100 = growth as untreated, 0 = no growth, -100 = all killed)
# Stated conditions: 10 µM unless noted
# Protocol: Cells are grown in 96 well plates and exposed to the test compound for 48 hours. Compounds are tested at a single concentration, which is 10^-5 M for most compounds. The reported endpoint is percent growth (GI% or GIPRCNT), where numbers from 0 - 100% represent growth inhibition, and numbers from -100% - 0 represent cell death. For example, a value of 40 represents 60% growth inhibition. A value of 0 means no net growth occurred over the course of the experiment. […]
Compounds without any hit were thinned out: in the full panel of roughly 83,000, 20% have a hit. The source made the active and inactive calls. The calls were made as follows: active = growth percent below 10; inactive = the rest.

A selection of reference data follows.
Query string: Please give the measured growth for this molecule: CCOC(=O)C1=C(C)/C(=C\c2[nH]c(C)c(C(=O)OCC)c2C)N=C1C
Result string: 101% (inactive)

Query string: Please give the measured growth for this molecule: O=C(O)/C=C/C(=O)Nc1cccc(Cn2nnc3cc(Cl)c(Cl)cc32)c1
Result string: 93.2% (inactive)

Further cases:
Query string: Please give the measured growth for this molecule: CC1(C)CC2=C3C=C[C@@H]4[C@@]5(C)CCC(=O)C(C)(C)[C@@H]5CC[C@@]4(C)[C@]3(C)CC[C@@]2(C(=O)O)C[C@H]1O
Result string: 29.1% (inactive)

Query string: Please give the measured growth for this molecule: CN(C)c1ccc(/C=C(\C#N)c2cc3ccccc3[nH]2)cc1
Result string: 28.9% (inactive)

Query string: Please give the measured growth for this molecule: O=C1Nc2ccccc2/C1=C\c1c[nH]c2ccc(Br)cc12
Result string: 25.4% (inactive)

----------
# Test system: COLO 205 colon
# Experiment: NCI-60 one-dose screen, 48 h
# Stated conditions: 10 µM unless noted
About 83,000 compounds went through this panel and 20% of them were active in at least one assay; those are over-represented in the sample as a whole. Active and inactive are the calls of the source. How the source made its calls: active means growth percent below 10; inactive means the rest.
Classes to choose from: active, inactive

Worked set:
Query string: Would you mind telling me which call this test gave CN(C)CCCC1(c2ccc(F)cc2)OCc2cc(-c3cc4ccccc4s3)ccc21 (stereo not given) ?
Result string: active

Query string: Would you mind telling me which call this test gave Cc1ccc(-c2nc3nc(-c4ccccc4)nc(N4CCCN(S(C)(=O)=O)CC4)c3o2)cc1 ?
Result string: inactive

Query string: Would you mind telling me which call this test gave Cc1ccc(-c2nc(SCc3nc4cc(Cl)c(Cl)cc4[nH]3)[nH]c(=O)c2C#N)cc1 ?
Result string: inactive

Query string: Would you mind telling me which call this test gave O=C(CN1CCN(c2cc3c(cc2F)c(=O)c(C(=O)O)cn3C2CC2)CC1)N/N=C/c1ccco1 ?
Result string: inactive

Okay, next one:
Query string: Would you mind telling me which call this test gave CC[N+]1(CC)CC[N+]2(CCCC(C)CC2)CC1 (stereo not given) ?
Result string: inactive

----------
# Tested on: SK-OV-3 ovarian
# Experiment: NCI-60 one-dose screen, 48 h
# Stated conditions: 10 µM unless noted
This is part of a sample that, as a whole, favours compounds with a hit. Of some 83,000 tested, about 20% had one in any assay. The source made the active and inactive calls. Rule for the calls: active = growth percent below 10; inactive = the rest.
Classes to choose from: True (active), False (inactive)

Query string: Would you mind telling me which call this test gave CCS/C(Nc1ccccc1)=C(\C#N)C(=O)Nc1ccc(OC)cc1 ?
Result string: False

Query string: Would you mind telling me which call this test gave COc1ccc(C#Cc2ccc(=O)oc2-c2cc(OC)c(OC)c(OC)c2)cc1O ?
Result string: False

Query string: Would you mind telling me which call this test gave CN(CCC(=O)c1ccccc1)CCC(=O)c1ccccc1 ?
Result string: False

Query string: Would you mind telling me which call this test gave COc1ccc(Cn2cc3c(c2-c2ccccc2)CCc2cnoc2-3)cc1 ?
Result string: False

Query string: Would you mind telling me which call this test gave Fc1cccc(-c2ccc3c(c2)C2(CCNCC2)CN3)c1 ?
Result string: False

Further cases:
Query string: Would you mind telling me which call this test gave C=C1CC[C@@H]2[C@](C)(COC(C)=O)[C@H](OC(C)=O)CC[C@@]2(C)[C@@H]1CC(Nc1ccc(S(=O)(=O)NC(C)=O)cc1)C1=CCOC1=O (stereo not given in full) ?
Result string: False

Query string: Would you mind telling me which call this test gave CNC1=C([N+](=O)[O-])C(c2ccc(OC)cc2)C(C#N)=C(c2cccs2)O1 (stereo not given) ?
Result string: False

Query string: Would you mind telling me which call this test gave CCSc1oc(C)nc1[P+](c1ccccc1)(c1ccccc1)c1ccccc1 ?
Result string: False

----------
# System: HCT-15 colon
# Experiment: NCI-60 one-dose screen, 48 h (100 = growth as untreated, 0 = no growth, -100 = all killed)
# Stated conditions: 10 µM unless noted
# Experimental: Growth inhibition of the HCT-15 human tumor cell line is measured as a screen for anti-cancer activity. Cells are grown in 96 well plates and exposed to the test compound for 48 hours. Compounds are tested at a single concentration, which is 10^-5 M for most compounds. The reported endpoint is percent growth (GI% or GIPRCNT), where numbers from 0 - 100% represent growth inhibition, and numbers from -100% - 0 represent cell death. For example, a value of 40 represents 60% growth inhibition. […]
About 83,000 compounds went through this panel and 20% of them were active in at least one assay; those are over-represented in the sample as a whole. The source made the active and inactive calls. The calls were made as follows: active = growth percent below 10; inactive = the rest.
Recorded growth for the following compounds

Query string: Please give the measured growth for this compound: CCOC(=O)c1nn(CC(O)c2ccccc2)c(NC(=O)Nc2cccc(F)c2)c1C (centres undefined)
Result string: 98% (inactive)

Query string: Please give the measured growth for this compound: Cc1nc2cc(O)c(O)cc2cc1Oc1ccc(NC(=O)Nc2ccc(Cl)c(Cl)c2)cc1
Result string: 37.2% (inactive)

Query string: Please give the measured growth for this compound: Cc1cccc2c1C[C@@]1(C2=O)C(c2ccc(C(C)(C)C)cc2)=NOS1=O (some centres undefined)
Result string: 72.1% (inactive)

Query string: Please give the measured growth for this compound: CCN(CC)CCCN1C(=O)c2c(c(C)c3c(oc4ccc(O)cc43)c2C)C1=O
Result string: -77.5% (active)

Query string: Please give the measured growth for this compound: CN1C(=O)/C(=C2\SC(=Nc3ccccc3)N(Nc3ccccc3)C2=O)c2ccccc21
Result string: 105% (inactive)

Query string: Please give the measured growth for this compound: N#C/C(=C\c1ccc([N+](=O)[O-])cc1)n1nnc2cc(F)c(F)cc21
Result string: -7.69% (active)

Further cases:
Query string: Please give the measured growth for this compound: O=C1Nc2ccccc2/C1=C\c1c[nH]c2ccc(Br)cc12
Result string: 48.7% (inactive)

Query string: Please give the measured growth for this compound: CC1(C)C(N)=Nc2cc(OCCCN3Cc4ccccc4C3)c(OCC3CC3)cc21
Result string: 40% (inactive)

Query string: Please give the measured growth for this compound: O=c1cc(-c2ccccc2)[nH]c2ncc(-c3ccc(F)cc3)n12
Result string: 37.7% (inactive)

Query string: Please give the measured growth for this compound: C=C(CNCCc1ccc(O)cc1)[C@@H]1CC[C@]2(CO)CC[C@]3(C)[C@H](CC[C@@H]4[C@@]5(C)CCC(=O)C(C)(C)[C@@H]5CC[C@]43C)[C@@H]12
Result string: 6.17% (active)

Query string: Please give the measured growth for this compound: COc1cc(OC)c(/C=C/C(=O)c2c(O)cc(OC)c(C3CCN(C)CC3)c2OC)c(OC)c1
Result string: -58.1% (active)

Query string: Please give the measured growth for this compound: N#C/C(=C\c1cn(Cc2ccccc2)c2ccccc12)C(=O)Nc1ncc(Cc2ccccc2Cl)s1
Result string: 35.7% (inactive)
